system: Enterococcus faecium; assay: Antibacterial activity against vancomycin-resistant Enterococcus faecium assessed as inhibition of bacterial growth incubated for 18 hrs by broth microdilution method; type: functional
Would you mind telling me the reported MIC of each entry?
One number for each entry, in µg/mL.

Please give MIC for each item listed below.
1. O=C(Nc1cccc(Cl)c1)N[C@H]1CCN(CCC(Oc2ccc(C(F)(F)F)cc2)c2ccccc2)C1 (some centres undefined)
2. O=C(NCC1CCN(CCC(Oc2cccc(Cl)c2)c2ccccc2)CC1)Nc1cccc(Cl)c1 (racemic)
3. O=C(NCC1CCN(CCC(Oc2ccc(Cl)cc2)c2ccccc2)CC1)Nc1cccc(Cl)c1 (racemic)
4. O=C(Nc1cccc(Cl)c1)NC1CCN(CCC(Oc2ccc(F)cc2)c2ccccc2)CC1 (racemic)

0.78
1.56
0.39
1.56
